PROCEDURE DETAILS: qHTS assay to identify small molecule agonists of the endoplasmic reticulum stress response signaling pathway (AID 1159516)
CONDITION LABEL: ESRE-bla HeLa, ER stress beta-lactamase reporter, 5 h; series mostly up to 61 µM
Records with an inconclusive call do not appear. Activity calls are given as the source filed them. Calls follow the shape of the dose curve; as a rule, active = well fitted activation curve with a large enough effect in the signal ratio in the repeat runs (not every such curve was filed as active); inconclusive = weak or mixed curves, or effect the other way; inactive = flat fitted curve, though single readings scatter; the % refers to the signal ratio.
VALUE KIND: outcome

Examples from the recorded data:
Lookup: Using the record for CC(CCC(=O)O)C(=O)O (stereo not given) , report its outcome.
Found: inactive

Lookup: Next: Nc1nc2ccc([N+](=O)[O-])cc2s1
Found: inactive

Lookup: // query: COc1cc(C(=O)NCCCCCC(=O)O)cc(OC)c1OC
Found: inactive

Lookup: Next entry: O=C(OC(=O)c1ccccc1)c1ccccc1
Found: inactive

Lookup: Then this molecule: CC(=O)Nc1ccc(C)cc1C
Found: inactive

Lookup: // same read-out, input: CC(C)=CCC1C(=O)N(c2ccccc2)N(c2ccccc2)C1=O
Found: inactive

Lookup: Entry to check: Nc1nnc(-c2ccc([N+](=O)[O-])o2)o1
Found: inactive

Lookup: Moving on to O=C(O)C[C@H](NC(=O)OCc1ccccc1)C(=O)O
Found: inactive

Pending molecule:
Lookup: Fill in the blank: the reported outcome of N#CCCN(CCO)CCO is ____.
Found: inactive

---

PROCEDURE DETAILS: A CellTox Green Cytotoxicity Assay to monitor cytotoxicity in HEK293 cells - 24 hour (AID 1224875); also: nearly all actives have a fitted effect of over 45% in size
CONDITION LABEL: CellTox Green fluorescence; series mostly up to 76.8 µM
Inconclusive results are not listed. Calls of active or inactive are those of the source. Calls follow the shape of the dose curve; as a rule, active = well fitted activation curve with a large enough effect in the repeat runs; inconclusive = weak or mixed curves; inactive = flat fitted curve, though single readings scatter.
A correct response names exactly one class from active, inactive

Lookup: Tell me the assay call for Nc1nc2ccc([N+](=O)[O-])cc2s1 please.
Found: inactive

Lookup: Also need C[C@@]12CCC[C@H]1[C@@H]1CC[C@H]3C[C@@H](O)CC[C@]3(C)[C@H]1CC2 , thanks.
Found: inactive

Lookup: What about CCCCCCCC/C=C\CCCCCCCCCCCC(=O)O ?
Found: inactive

Lookup: // query: CC(=O)Nc1cc(S(=O)(=O)O)cc2cc(S(=O)(=O)O)c(N=Nc3ccccc3)c(O)c12
Found: inactive

Lookup: Can you check Cc1cscn1 next?
Found: inactive

Lookup: Repeat with N#[N+]c1ccc2c(S(=O)(=O)[O-])cccc2c1O
Found: inactive

Lookup: Same thing, different compound: O=C1NCCN1CCO
Found: inactive

Lookup: Then CCCCCCCCCCC(=O)O ?
Found: inactive

Lookup: Same read-out for Oc1cccc(O)c1O ?
Found: inactive

Lookup: Note, next up: COc1ccccc1N1CCN(CCCCNC(=O)c2ccc(-c3ccc(C(C)=O)cc3)cc2)CC1
Found: inactive

Lookup: Try this compound next: FC(F)(F)c1ccccc1Cl
Found: inactive

Lookup: Item: CCCCCCCCN
Found: inactive

Lookup: What do you get for Oc1c(I)cc(I)c2cccnc12 ?
Found: inactive

Lookup: Also C/C=C/C=C/C=O , if possible.
Found: inactive

Lookup: Another compound: CN1CCCN=C1COC(=O)C(O)(c1ccccc1)C1CCCCC1 (stereo not given)
Found: inactive

Lookup: One more compound: Nc1nnc(-c2ccc([N+](=O)[O-])o2)o1
Found: inactive

Lookup: Next entry: O=C1c2ccccc2C(=O)c2c(O)c(O)cc(O)c21
Found: inactive

Lookup: Could you do the same for O=C(O)C[C@H](NC(=O)OCc1ccccc1)C(=O)O , please?
Found: inactive

Lookup: Continue with O=C(OCC(O)CO)c1ccccc1Nc1ccnc2cc(Cl)ccc12 (stereo not given)
Found: inactive

Lookup: Now the same for CO[C@]1(NC(=O)CSC(F)F)C(=O)N2C(C(=O)O)=C(CSc3nnnn3CCO)CO[C@H]21
Found: inactive

Lookup: Consider next the compound CC(=O)Oc1ccc([N+](=O)[O-])cc1CCl in the same way.
Found: inactive

Lookup: Let us now turn to Cc1[nH]cnc1CN1CCc2c(c3ccccc3n2C)C1=O
Found: inactive

Lookup: Moving on to the next compound: CC(=O)OCC(=O)NCCCOc1cccc(CN2CCCCC2)c1
Found: inactive

Lookup: Would you mind doing CC(=O)OCC[N+](C)(C)C as well?
Found: inactive

Lookup: Now this one: CCOC(=O)c1ccc(OCCN2C[C@H](O)[C@@H](O)[C@H](O)[C@H]2CO)cc1
Found: inactive

Lookup: Please give the result for COC(=O)C1=C(C)NC(C)=C(C(=O)O[C@@H]2CCCN(Cc3ccccc3)C2)[C@@H]1c1cccc([N+](=O)[O-])c1 too.
Found: inactive

Lookup: Another compound to check: C=C(C)CCCC(C)CCO (stereo not given)
Found: inactive

Lookup: Likewise for N#CCCN(CCO)CCO ?
Found: inactive

Lookup: Further, for CCCCCCCC/C=C\CCCCCCCCO ?
Found: inactive

Lookup: Another compound to check: O=C(O)CCCCCCCCCCCBr
Found: inactive

Lookup: Please answer likewise for Oc1cccc(Nc2ccccc2)c1
Found: inactive

Lookup: Further, for CCOc1ccccc1O[C@H](c1ccccc1)[C@H]1CNCCO1 ?
Found: inactive

Lookup: What would you report for C=CC(=O)[O-].C=CC(=O)[O-].[Zn+2] ?
Found: inactive

Lookup: What would you report for O[C@@H]1CO[C@H]2[C@@H]1OC[C@@H]2O ?
Found: inactive

Lookup: Please do the same for O=[N+]([O-])c1ccc(Nc2ccc(Nc3ccccc3)c(S(=O)(=O)O)c2)c([N+](=O)[O-])c1 as well.
Found: inactive

Lookup: What would you report for CCCCCCCCCI ?
Found: inactive

Lookup: What do you get for CC1CC(OC(=O)C(O)c2ccccc2)CC(C)(C)N1C (stereo not given) ?
Found: inactive

Lookup: Same question for C/C=C(/C(=C/C)c1ccc(O)cc1)c1ccc(O)cc1 please.
Found: inactive

Lookup: Moving on to C=COCC(C)C
Found: inactive

Lookup: Now consider CN(C)CCC=C1c2ccccc2C=Cc2ccccc21 and answer again.
Found: inactive

Lookup: Same question for N#CCc1ccc(Cl)cc1Cl please.
Found: inactive

Lookup: What do we get for CCC(=O)OC ?
Found: inactive

Lookup: Another compound to look at: CC(C)COCC(CN(Cc1ccccc1)c1ccccc1)N1CCCC1 (stereo not given)
Found: active

Lookup: Likewise for C=C1C[C@@]23CC[C@H]4[C@@](C)(CCC[C@@]4(C)C(=O)O[C@@H]4O[C@H](CO)[C@@H](O)[C@H](O)[C@H]4O)[C@@H]2CC[C@]1(O[C@@H]1O[C@H](CO)[C@@H](O)[C@H](O[C@@H]2O[C@H](CO)[C@@H](O)[C@H](O)[C@H]2O)[C@H]1O[C@@H]1O[C@H](CO)[C@@H](O)[C@H](O)[C@H]1O)C3 ?
Found: inactive

Lookup: Moving on to the next compound: CCCCCCCCOc1ccc(C(=O)O)cc1
Found: inactive
